- Test system: Trypanosoma brucei brucei
- methodSummary: Antitrypanosomal activity against Trypanosoma brucei brucei BF427 measured after 48 hrs by Alamar blue assay
- Type: functional, organism-based
- testParameters: BF427, 48 h
Hi there, I'd appreciate the recorded EC50 for every entry that follows.

O=C1CN(Cc2ccccc2)C(=S)N1c1cc(Cl)ccc1F	> 10 µM
O=C1CN(Cc2ccccc2)C(=S)N1c1cc(C(F)(F)F)cc(C(F)(F)F)c1	> 10 µM

Next up:
Given `O=C1CN(Cc2ccccc2)C(=S)N1c1ccc(F)cc1` , respond with its EC50.
> 10 µM

----------
I'd be grateful if you could share measured EC50 for these entries.
- System: Trypanosoma brucei brucei
- methodSummary: Antitrypanosomal activity against Trypanosoma brucei brucei BF427 measured after 48 hrs by Alamar blue assay
- Format: functional, organism-based
- testParameters: BF427, 48 h

Reference set (2 entries):
O=C1CN(Cc2ccccc2)C(=S)N1c1ccc(O)cc1	> 10 µM
COc1ccc(Cl)cc1N1C(=O)CN(Cc2ccccc2)C1=S	> 10 µM

Here's the next entry for you.
Given the compound `CC(C)c1ccc(N2C(=O)CN(Cc3ccccc3)C2=S)cc1` , write its reported EC50.
> 10 µM
